molecular target: recombinant human GREM1 (hGREM1-His; C-terminal 10His tagged, R&D, #5190-GR) (human) (UniProt O60565); assay: BLI Octet, captured mAb, 100 nM GREM1
Sequence (O60565 other isoform, or with tags, fused parts or gaps limits assumed, form in doubt): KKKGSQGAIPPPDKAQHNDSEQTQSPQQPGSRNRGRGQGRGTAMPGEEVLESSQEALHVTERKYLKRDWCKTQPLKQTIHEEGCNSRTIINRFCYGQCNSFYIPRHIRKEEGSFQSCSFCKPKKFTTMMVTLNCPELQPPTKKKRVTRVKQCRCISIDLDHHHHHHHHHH
Parameter: Binding Signal with 300 sec Association (nm)
Form entry: value (nm) — number only.

Exercise: Return Binding Signal with 300 sec Association (nm) for the following binder: H4H6269P (antibody, human IgG4, V domains shown) VH: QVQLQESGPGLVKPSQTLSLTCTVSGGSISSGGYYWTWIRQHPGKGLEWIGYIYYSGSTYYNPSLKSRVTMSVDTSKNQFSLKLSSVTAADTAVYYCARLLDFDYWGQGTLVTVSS VL: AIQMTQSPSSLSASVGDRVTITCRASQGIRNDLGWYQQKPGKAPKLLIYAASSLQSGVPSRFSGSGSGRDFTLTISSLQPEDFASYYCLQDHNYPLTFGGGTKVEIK
Key: 0.6

Exercise: Note down Binding Signal with 300 sec Association (nm) recorded for H4H2783N2 (antibody, human IgG4, V domains shown) VH: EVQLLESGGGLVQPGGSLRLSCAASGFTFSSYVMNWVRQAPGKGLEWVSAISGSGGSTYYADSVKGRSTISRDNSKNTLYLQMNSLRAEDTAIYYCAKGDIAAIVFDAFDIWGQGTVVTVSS VL: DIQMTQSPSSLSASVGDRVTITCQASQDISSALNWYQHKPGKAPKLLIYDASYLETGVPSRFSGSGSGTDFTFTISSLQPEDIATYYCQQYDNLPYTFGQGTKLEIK
Key: 0.47

Exercise: Note down Binding Signal with 300 sec Association (nm) recorded for H4H2892N (antibody, human IgG4, V domains shown) VH: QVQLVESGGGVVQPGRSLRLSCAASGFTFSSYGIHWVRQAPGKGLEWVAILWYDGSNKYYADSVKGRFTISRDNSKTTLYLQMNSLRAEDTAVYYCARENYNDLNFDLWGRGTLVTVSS VL: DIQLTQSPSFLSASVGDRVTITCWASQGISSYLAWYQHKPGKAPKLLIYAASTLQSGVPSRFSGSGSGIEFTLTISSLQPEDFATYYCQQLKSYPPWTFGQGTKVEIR
Key: 0.49

Entry source: patent US20230192831A1
